CC50 at 120 h reference
assay.info: Cytotoxicity against African green monkey Vero cells assessed as reduction in cell growth incubated for 5 days by CellTiter 96 AQueous One Solution cell proliferation assay
Type: cell-based
condition.parameters: chlorocebus sabaeus, Vero cells

CCOC(=O)c1c(-c2ccccc2)nc(=O)n(Cc2ccc(Cc3cccc(C(=O)/C=C(\O)C(=O)OC(C)C)c3)cc2)c1CC	> 100 µM

Please look at the following compound next.
// returns reported CC50 at 120 h for input `CCOC(=O)c1c(-c2ccc(OC)cc2)nc(=O)n(Cc2ccc(C(=O)/C=C(\O)C(=O)OC(C)C)cc2)c1-c1ccccc1`
> 100 µM

###

system.name: Human immunodeficiency virus type 1 integrase (Human immunodeficiency virus 1)
Sequence (Q7ZJM1 whole entry): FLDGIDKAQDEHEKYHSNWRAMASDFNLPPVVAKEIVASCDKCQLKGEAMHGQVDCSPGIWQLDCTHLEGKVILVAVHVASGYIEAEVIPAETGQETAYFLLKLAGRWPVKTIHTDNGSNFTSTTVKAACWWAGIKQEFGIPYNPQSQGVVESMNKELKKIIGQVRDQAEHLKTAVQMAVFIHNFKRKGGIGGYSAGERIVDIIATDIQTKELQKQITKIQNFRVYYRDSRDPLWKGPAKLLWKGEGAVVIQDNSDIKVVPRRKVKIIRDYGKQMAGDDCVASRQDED
assay.info: Inhibition of recombinant HIV-1 integrase stand transfer activity expressed in Escherichia coli BL21(DE3) cells using 32P-labeled DNA substrate after 1 hr by densitometric analysis
experimental.endpoint: IC50 (µM)
Field format: number, assumed µM, no unit text.

// known answers, use as guide
CCOC(=O)c1c(-c2ccccc2)nc(=O)n(Cc2ccc(C(=O)/C=C(\O)C(=O)O)cc2)c1-c1ccccc1	2
CCOC(=O)c1c(-c2ccc(F)cc2)nc(=O)n(Cc2ccc(C(=O)/C=C(\O)C(=O)O)cc2)c1C(C)C	3.6

Please look at the following compound next.
// returns reported IC50 for input `CCOC(=O)c1c(-c2ccccc2)nc(SCc2ccc(C(=O)/C=C(\O)C(=O)O)cc2)nc1-c1ccc(F)cc1`
2.8
